Entry source: paper PMC11790914

# tested on: GSK3B (Homo sapiens, UniProt P49841)
# Construct: made in house
# Sequence (P49841 whole entry, species assumed): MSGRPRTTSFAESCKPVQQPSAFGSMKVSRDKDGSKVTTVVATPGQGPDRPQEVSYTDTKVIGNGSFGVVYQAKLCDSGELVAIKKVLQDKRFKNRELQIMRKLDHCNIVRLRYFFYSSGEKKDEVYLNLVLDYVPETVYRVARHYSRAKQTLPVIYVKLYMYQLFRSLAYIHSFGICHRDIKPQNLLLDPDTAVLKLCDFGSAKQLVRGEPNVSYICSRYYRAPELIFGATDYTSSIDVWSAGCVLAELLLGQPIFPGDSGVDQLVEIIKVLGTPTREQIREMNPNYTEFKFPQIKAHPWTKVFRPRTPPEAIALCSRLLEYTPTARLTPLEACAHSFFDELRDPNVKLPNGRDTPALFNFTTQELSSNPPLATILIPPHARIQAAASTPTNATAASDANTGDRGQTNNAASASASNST
# assay text: Liability panel screening by DSF: GSK3B
# Type: binding
# condition parameters: DSF, 20 µM, n=2; read-out: Mean ΔTM GSK3B
Note to self: use MET only for ΔTm at 20 µM readings below -0.06 °C; a reading exactly at -0.06 °C still gets NOT MET.

Some solved cases for reference:
compound	category
CCN(CC)c1ccc(/C=N/NC(=O)c2ccc(O)cc2)cc1	MET
CC(C)c1ccc(/C=N/NC(=O)c2ccc(O)cc2)cc1	MET
N#Cc1ccc([C@H]2CCCC[C@H]2O)cc1C(F)(F)F	MET

Ask: Bench note: check whether CCCC1O[C@@H]2C[C@H]3[C@@H]4CCC5=CC(=O)C=C[C@]5(C)[C@H]4[C@@H](O)C[C@]3(C)[C@]2(C(=O)CO)O1 (some centres unmarked) [Budesonide] shows ΔTm at 20 µM below -0.06 °C
Result: MET

Ask: Please determine if C[C@@H]1Cc2c([nH]c3ccccc23)[C@@H](c2c(F)cc(/C=C/C(=O)O)cc2F)N1CC(C)(C)F is below -0.06 °C in terms of ΔTm at 20 µM.
Result: NOT MET

Ask: Please state whether ΔTm at 20 µM is below -0.06 °C for COc1ccc2c(c1)OC(C)(C)C(c1ccccc1)C2c1ccc(OCCN2CCCC2)cc1 (centres unmarked)
Result: NOT MET

Ask: Hello, is ΔTm at 20 µM of the following compound strictly smaller than -0.06 °C? COC(=O)[C@@H]1CC2=CC(=O)CC[C@]2(C)[C@@]23O[C@@H]2C[C@@]2(C)[C@@H](CC[C@@]24CCC(=O)O4)[C@H]13
Result: MET

Ask: Please state whether ΔTm at 20 µM is below -0.06 °C for CC#C[C@]1(O)CC[C@H]2[C@@H]3CCC4=CC(=O)CCC4=C3[C@@H](c3ccc(N(C)C)cc3)C[C@@]21C
Result: MET

Ask: Would you kindly verify if ΔTm at 20 µM of CC/C(=C(/c1ccc(/C=C/C(=O)O)cc1)c1ccc2[nH]ncc2c1)c1ccc(F)cc1Cl is strictly less than -0.06 °C?
Result: NOT MET

* * *

# tested on: AURKA (Homo sapiens)
# Construct: made in house
# assay text: Liability panel screening by DSF: AURKA
# Format: binding
# condition parameters: DSF, 20 µM, n=2; read-out: Mean ΔTM AURKA
measured endpoint: ΔTm at 20 µM

Some solved cases for reference:
molecule	ΔTm at 20 µM
CCN(CC)c1ccc(/C=N/NC(=O)c2ccc(O)cc2)cc1	-2.05 °C
COc1cccc([C@@H](Oc2ccc3c(cnn3-c3ccc(F)cc3)c2)[C@H](C)NC(=O)C(F)(F)F)c1	-3.28 °C
CC/C(=C(/CC)c1ccc(O)cc1)c1ccc(O)cc1	-1.78 °C

Please turn your attention to the following entry.
Ask: Need ΔTm at 20 µM, item CCC(=O)O[C@]1(C(=O)SCF)[C@H](C)C[C@H]2[C@@H]3C[C@H](F)C4=CC(=O)C=C[C@]4(C)[C@@]3(F)[C@@H](O)C[C@@]21C [Fluticasone propionate]
Result: 0.09 °C

* * *

# System: NF-κB activity in HEK293 NF-κB reporter cells
# assay text: NF-kB activity assay (GFP reporter, ionomycin/PMA)
# Format: cell-based
# condition parameters: 1 µM, 6 h, n=3
measured endpoint: Mean NFκB response

Here's what some known entries look like.
compound	tested on	measured endpoint	result
CC[C@@H]1Cc2cc(O)ccc2C2=C1c1ccc(O)cc1C[C@H]2CC [(R,R)-THC]	NF-κB activity in HEK293 NF-κB reporter cells	Mean NFκB response	5471.05 GFP+-cells/confluence ∙ 1000
CNC(=O)c1ccc(N2C(=S)N(c3ccc(C#N)c(C(F)(F)F)c3)C(=O)C2(C)C)cc1F [Enzalutamide]	NF-κB activity in HEK293 NF-κB reporter cells	Mean NFκB response	6007.28 GFP+-cells/confluence ∙ 1000
Cc1c(-c2ccc(O)cc2)n(Cc2ccc(OCCN3CCCCCC3)cc2)c2ccc(O)cc12	NF-κB activity in HEK293 NF-κB reporter cells	Mean NFκB response	5066.30 GFP+-cells/confluence ∙ 1000
COC(=O)[C@@H]1CC2=CC(=O)CC[C@]2(C)[C@@]23O[C@@H]2C[C@@]2(C)[C@@H](CC[C@@]24CCC(=O)O4)[C@H]13	NF-κB activity in HEK293 NF-κB reporter cells	Mean NFκB response	3625.00 GFP+-cells/confluence ∙ 1000

Ask: Item O=C(/C=C/c1ccc(O)cc1)c1ccc(O)cc1O has what recorded Mean NFκB response?
Result: 5800.94 GFP+-cells/confluence ∙ 1000

Ask: Mean NFκB response for Oc1ccc(-c2nc3cc(O)cc(Br)c3o2)cc1 ?
Result: 4284.26 GFP+-cells/confluence ∙ 1000

Ask: Returns the measured Mean NFκB response for the input compound. Input: CC(=O)O[C@]1(C(C)=O)CC[C@H]2[C@@H]3C=C(Cl)C4=CC(=O)[C@@H]5C[C@@H]5[C@]4(C)[C@H]3CC[C@@]21C [Cyproterone acetate]
Result: 5348.79 GFP+-cells/confluence ∙ 1000

Ask: Can you share its Mean NFκB response? I mean this compound: CC(=O)Nc1ccc(OC[C@](C)(O)C(=O)Nc2ccc([N+](=O)[O-])c(C(F)(F)F)c2)cc1
Result: 3252.11 GFP+-cells/confluence ∙ 1000

Ask: Param item = CC(=O)O[C@]1(C(C)=O)CC[C@H]2[C@@H]3CCC4=CC(=O)CCC4=C3[C@@H](c3ccc(N(C)C)cc3)C[C@@]21C [Ulipristal acetate] ; retrieve measured Mean NFκB response.
Result: 3846.67 GFP+-cells/confluence ∙ 1000

Ask: Query (compound): COc1cccc([C@@H](Oc2ccc3c(cnn3-c3ccc(F)cc3)c2)[C@H](C)NC(=O)C(F)(F)F)c1 ; field requested: Mean NFκB response
Result: 3758.89 GFP+-cells/confluence ∙ 1000

Ask: Which measured Mean NFκB response value corresponds to Cc1ccc2c(NC[C@](O)(CC(C)(C)c3cc(F)cc4c3OCC4)C(F)(F)F)cccc2n1 ?
Result: 4081.73 GFP+-cells/confluence ∙ 1000

* * *

# tested on: AURKA (Homo sapiens, UniProt O14965)
# Construct: made in house
# Sequence (O14965 1-403): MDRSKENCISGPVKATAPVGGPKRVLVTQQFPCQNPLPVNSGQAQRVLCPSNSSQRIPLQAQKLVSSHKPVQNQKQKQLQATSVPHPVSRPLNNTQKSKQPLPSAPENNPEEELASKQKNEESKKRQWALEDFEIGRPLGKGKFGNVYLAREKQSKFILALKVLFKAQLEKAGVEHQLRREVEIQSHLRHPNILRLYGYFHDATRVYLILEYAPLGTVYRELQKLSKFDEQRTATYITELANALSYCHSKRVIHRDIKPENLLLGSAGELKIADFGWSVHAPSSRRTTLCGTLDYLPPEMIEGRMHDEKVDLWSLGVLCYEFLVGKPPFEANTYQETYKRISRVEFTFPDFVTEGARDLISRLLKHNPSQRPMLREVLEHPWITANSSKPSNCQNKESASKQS
# assay text: Liability panel screening by DSF: AURKA
# Format: binding
# condition parameters: read-out: Mean ΔTM AURKA
measured endpoint: ΔTm at 20 µM (°C)
Numeric only. Scale: °C

Please review the entries below; each comes with its answer.
molecule	tested on	ΔTm at 20 µM / °C
O=S(=O)(Cc1ccccc1)Nc1ccc(-c2ccc3c(cnn3-c3ccc(F)cc3)c2)c(C(F)(F)F)c1 [GSK9027]	AURKA (Homo sapiens, UniProt O14965)	1.2
C[C@]1(O)CC[C@H]2[C@@H]3CCC4=CC(=O)CCC4=C3C=C[C@@]21C [Methyltrienolone]	AURKA (Homo sapiens, UniProt O14965)	0.08
CCCc1c(-c2ccc(O)cc2)nn(-c2ccc(O)cc2)c1-c1ccc(O)cc1 [Propylpyrazoletriol]	AURKA (Homo sapiens, UniProt O14965)	0.0212
CC[C@@H]1Cc2cc(O)ccc2C2=C1c1ccc(O)cc1C[C@H]2CC [(R,R)-THC]	AURKA (Homo sapiens, UniProt O14965)	1.62

Field: next molecule
Ask: Which measured ΔTm at 20 µM value corresponds to CC(=O)Nc1ccc(OC[C@](C)(O)C(=O)Nc2ccc([N+](=O)[O-])c(C(F)(F)F)c2)cc1 [Andarine] ?
Result: -0.0326

* * *

# tested on: BRD4 (Homo sapiens, UniProt O60885)
# Construct: This panel comprised ten highly ligandable kinases and bromodomains; made in house
# assay text: Liability panel screening by DSF: BRD4
# Assay type: binding
# condition parameters: read-out: Mean ΔTM BRD4
measured endpoint: ΔTm at 20 µM (°C)
Give the quantity in °C, number only.

Consider the worked cases shown below.
compound	measured endpoint	quantitative readout
CC[C@@H]1Cc2cc(O)ccc2C2=C1c1ccc(O)cc1C[C@H]2CC [(R,R)-THC]	ΔTm at 20 µM	-3.36
CCCc1c(-c2ccc(O)cc2)nn(-c2ccc(O)cc2)c1-c1ccc(O)cc1 [Propylpyrazoletriol]	ΔTm at 20 µM	-2.55
C[C@]1(O)CC[C@H]2[C@@H]3CCC4=CC(=O)CCC4=C3C=C[C@@]21C [Methyltrienolone]	ΔTm at 20 µM	-0.94
O=S(=O)(Cc1ccccc1)Nc1ccc(-c2ccc3c(cnn3-c3ccc(F)cc3)c2)c(C(F)(F)F)c1 [GSK9027]	ΔTm at 20 µM	1.58

Ask: // fetch BRD4 (Homo sapiens, UniProt O60885) ΔTm at 20 µM for CC(=O)Nc1ccc(OC[C@](C)(O)C(=O)Nc2ccc([N+](=O)[O-])c(C(F)(F)F)c2)cc1 [Andarine]
Result: -0.77
